# measured target: Rho-associated protein kinase 1 (Homo sapiens) (UniProt Q13464);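 further: reported values are mean percent inhibition of ROCK1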
# Sequence (Q13464 2-1354 limits assumed): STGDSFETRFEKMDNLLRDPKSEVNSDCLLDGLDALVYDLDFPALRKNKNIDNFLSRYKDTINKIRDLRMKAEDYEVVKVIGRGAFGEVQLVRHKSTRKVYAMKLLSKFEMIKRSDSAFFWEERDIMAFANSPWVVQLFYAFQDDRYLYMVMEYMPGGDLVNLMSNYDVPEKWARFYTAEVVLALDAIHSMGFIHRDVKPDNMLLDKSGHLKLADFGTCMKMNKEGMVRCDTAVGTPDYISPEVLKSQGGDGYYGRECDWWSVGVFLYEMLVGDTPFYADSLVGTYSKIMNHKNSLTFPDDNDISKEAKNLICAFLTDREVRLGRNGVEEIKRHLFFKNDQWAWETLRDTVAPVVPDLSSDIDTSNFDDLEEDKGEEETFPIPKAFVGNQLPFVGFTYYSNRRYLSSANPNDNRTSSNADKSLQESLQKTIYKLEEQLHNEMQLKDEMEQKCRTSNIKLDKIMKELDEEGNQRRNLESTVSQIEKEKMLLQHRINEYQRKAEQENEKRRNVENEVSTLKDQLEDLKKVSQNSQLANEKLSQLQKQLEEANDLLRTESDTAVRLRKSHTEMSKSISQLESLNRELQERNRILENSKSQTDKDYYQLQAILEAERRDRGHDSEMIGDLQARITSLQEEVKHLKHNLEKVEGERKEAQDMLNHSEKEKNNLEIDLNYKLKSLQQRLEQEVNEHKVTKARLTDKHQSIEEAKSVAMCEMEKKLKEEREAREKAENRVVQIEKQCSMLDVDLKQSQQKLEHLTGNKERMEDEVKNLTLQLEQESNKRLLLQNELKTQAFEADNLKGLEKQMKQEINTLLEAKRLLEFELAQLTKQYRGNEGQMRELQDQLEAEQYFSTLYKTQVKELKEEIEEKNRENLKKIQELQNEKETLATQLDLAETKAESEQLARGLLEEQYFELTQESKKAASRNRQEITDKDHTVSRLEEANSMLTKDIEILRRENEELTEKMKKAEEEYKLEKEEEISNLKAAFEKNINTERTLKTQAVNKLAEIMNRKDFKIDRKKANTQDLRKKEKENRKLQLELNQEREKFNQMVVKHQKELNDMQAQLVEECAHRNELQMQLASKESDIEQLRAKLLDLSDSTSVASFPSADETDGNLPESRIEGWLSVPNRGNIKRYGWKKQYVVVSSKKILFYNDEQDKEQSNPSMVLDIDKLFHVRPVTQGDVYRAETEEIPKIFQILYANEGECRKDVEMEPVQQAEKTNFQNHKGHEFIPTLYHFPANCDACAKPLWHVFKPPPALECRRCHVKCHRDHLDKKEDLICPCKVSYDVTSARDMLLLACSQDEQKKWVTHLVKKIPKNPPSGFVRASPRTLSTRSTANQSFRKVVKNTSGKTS
# test parameters: at 1 µM
property name: inhibition (%)
Numeric only. Scale: %

Examples from the recorded data:
CCCN1CCC=C(c2ccc(Nc3nc(Nc4ccccc4C(N)=O)c4cc[nH]c4n3)c(C)c2)C1; 8.96
CNC(=O)c1cncc(/C=C/c2c(Cl)cccc2Cl)c1; 1.88
O=C1NC(=O)C(c2cccc(Cl)c2)=C1Nc1ccc(O)c(Cl)c1; 0.49
Cc1ccc(NC(=O)c2ccnc(N3CCCC3)c2)cc1-c1ccc(C(=O)NCC2CC2)cc1; 7.68

## Task Short answer please: inhibition, Rho-associated protein kinase 1 (Homo sapiens) (UniProt Q13464), entry `CCn1c(-c2nonc2N)nc2c(C#CC(C)(C)O)nc(CN3CCCC3)cc21`
## Result 0.94

## Task Short answer please: inhibition, Rho-associated protein kinase 1 (Homo sapiens) (UniProt Q13464), entry `Cc1nn(C)c2cc(N(C)c3ccnc(Nc4cccc(S(N)(=O)=O)c4)n3)ccc12`
## Result 2.24

## Task Short answer please: inhibition, Rho-associated protein kinase 1 (Homo sapiens) (UniProt Q13464), entry `Cn1cc(C=C2C(=O)Nc3cccnc32)c2ccccc21`
## Result 5.28
